Assay: in vivo
Conditions: SD, rat, in vivo, po
Protocol: Taking SD rats as a model, a docetaxel-triglyceride prodrug emulsion and a docetaxel solution are orally administered; a plasma concentration of a parent drug is measured; and a drug-time curve is drawn and corresponding pharmacokinetic parameters are calculated respectively based on the measured concentration (Table 2). In order to calculate the absolute bioavailability, a docetaxel solution is administered intravenously, and the content of docetaxel in the plasma is measured. […]
readout: Tmax (min)
Kindly answer with a numeric value in min, unit omitted.

Lookup result for CC(=O)O[C@@]12CO[C@@H]1C[C@H](O)[C@@]1(C)C(=O)[C@H](O)C3=C(C)[C@@H](OC(=O)[C@H](O)[C@@H](NC(=O)OC(C)(C)C)c4ccccc4)C[C@@](O)([C@@H](OC(=O)c4ccccc4)[C@H]21)C3(C)C ; measured Tmax: 24

meta.source: patent US20220016251A1
